Molecular target: Glutamate NMDA receptor
pIC50: −log10 of the molar value.
measure name: pIC50

In: # input compound: CCN(CC)C(=O)[C@@]1(c2ccccc2)C[C@H]1C(N)C(N)=O (some centres not stated) ; wanted: its pIC50
Out: 4.57

(a) CCN(CC)C(=O)[C@@]1(c2ccccc2)C[C@H]1C(N)C#N (stereo in doubt; 2e)
(b) C#CC(N)[C@@H]1C[C@@]1(C(=O)N(CC)CC)c1ccccc1 (stereo in doubt; 2d)
(c) C#CC(N)[C@@H]1C[C@@]1(C(=O)N(CC)CC)c1ccccc1 (stereo in doubt; 3d)
In: Parameters: sort_field (pIC50), sort_dir (desc). Return value: ordered labels per request.
Out: b, c, a
(b: 6.54, c: 4.80, a: 4.02)

* * *

Biological target: Glutamate NMDA receptor
pIC50: −log10 of the molar value.
// pIC50 lookup, one value per entry

In: Name the recorded pIC50 for CCN(CC)C(=O)[C@@]1(c2ccccc2)C[C@H]1C(N)C(=O)OC (stereo partly drawn) .
Out: < 4.00

In: Item CCN(CC)C(=O)[C@@]1(c2ccccc2)C[C@H]1C(N)C#N (stereo in doubt; 3e) has what recorded pIC50?
Out: < 4.00

Now look at this one.
In: Value lookup for pIC50; key = CCN(CC)C(=O)[C@@]1(c2ccccc2)C[C@H]1C(N)C(=O)O (stereo partly drawn)
Out: < 4.00
